- Test system: Streptococcus pneumoniae
- assay.name: Antibacterial activity against Streptococcus pneumoniae ATCC 49619
- Assay type: functional
property.measured: log10 MIC (log10 of the value in µg/mL)
Please be aware that the numbers have been log10-transformed from MIC in µg/mL.

Observe how each entry below is paired with its result.
- compound: "COc1ccc2nccc(-n3cc4c(n3)CCC(NCc3ccc5c(c3)OCCCO5)C4)c2n1 (centres undefined)"
  log10 MIC: 0.60
- compound: "COc1ccc2nccc(-n3cc4c(n3)CCC(NCc3ccc5c(c3)NC(=O)CS5)C4)c2n1 (centres undefined)"
  log10 MIC: 0.00
- compound: "COc1ccc2nccc(-n3cc4c(n3)CCC(NC(=O)c3cc5ccccc5[nH]3)C4)c2c1 (centres undefined)"
  log10 MIC: 0.90

Q: # return recorded log10 MIC for entry COc1ccc2nccc(-n3cc4c(n3)CCC(NC(=O)c3ccc5c(c3)NC(=O)CS5)C4)c2c1 (centres undefined)
Ans: 0.30

Q: Output measured log10 MIC for this item: COc1ccc2nccc(-n3cc4c(n3)CCC(NCc3ccc5c(n3)NC(=O)CO5)C4)c2c1 (centres undefined)
Ans: 0.30

Q: Note log10 MIC for the compound shown: COc1ccc2nccc(-n3cc4c(n3)CCC(NCc3ccc5c(c3)NCCS5)C4)c2n1 (centres undefined)
Ans: -0.60

Q: Give the measured log10 MIC for COc1ccc2nccc(-n3cc4c(n3)CCC(NCc3ccc5c(n3)NC(=O)CO5)C4)c2n1 (centres undefined)
Ans: 0.30

Q: Give reported log10 MIC value for COc1ccc2nccc(-n3cc4c(n3)CCC(NC(=O)c3cc5c(cc3F)SCC(=O)N5)C4)c2n1 (centres undefined)
Ans: 0.30

Q: For the compound COc1ccc2nccc(-n3cc4c(n3)CCC(NC(=O)c3c(F)cc5c(c3F)NC(=O)CS5)C4)c2n1 (centres undefined) , report log10 MIC.
Ans: 0.60

Q: Supply recorded log10 MIC for O=C1CSc2ccc(C(=O)NC3CCc4nn(-c5cccc6cccnc56)cc4C3)cc2N1 (centres undefined) here.
Ans: 0.60
